For each record, write down the corresponding TGI.
# System: OVCAR-8 ovarian
# assay notes: NCI tumour cell line growth inhibition, 48 h

{"molecule": "CC1CC(=O)Nc2ccccc2N1C(=O)CN1CCC(CCCCN(C)C)CC1 (stereo not given)", "TGI": "> 100 µM"}
{"molecule": "O=C(c1ccccc1)[C@H]1Nc2ccc(Cl)cc2C2c3ccccc3CC21 (stereo not given in full)", "TGI": "> 100 µM"}
{"molecule": "CC(C)(C)OC(=O)NCCc1cccc2c1oc1c(CCC(=O)O)cccc12", "TGI": "> 100 µM"}
{"molecule": "CNC(=O)SCC(N)C(=O)O (stereo not given)", "TGI": "> 100 µM"}
{"molecule": "Cc1nc(N/N=C/c2ccccc2Cl)[nH]c(=O)c1CCO", "TGI": "51.7 µM"}
{"molecule": "O=C1Nc2c(C(F)(F)F)cccc2[C@@]1(c1ccc(O)cc1)c1ccc(OC(F)(F)F)cc1", "TGI": "0.0102 µM"}
{"molecule": "O=C(O)C[C@H]1CCCCC12CCOC2=O (stereo not given in full)", "TGI": "> 100 µM"}
{"molecule": "O=CNc1ncn[nH]1", "TGI": "> 100 µM"}

Batch request: TGI for each of the following molecules.
1. O=c1[nH]nc(Cc2ccccc2)n1/N=C\c1ccccc1
2. Cc1ccc(-c2cc(C(F)(F)F)nn2-c2ccc(S(N)(=O)=O)cc2)cc1
3. [O-][n+]1ccccc1S
4. C/C=C/C1=CC(=O)C(O)C1O (stereo not given)
5. CC(=O)OC/C=C\Cn1nc(Br)c(=O)[nH]c1=O
6. CCC(=O)c1ccc2[nH]c3c(C)c4c(=O)cc(C)[nH]c4c(C)c3c2c1
7. CC1=CC[C@@]2(CO)[C@@H]([C@@H]1C)[C@H]1CC[C@@H]3[C@@]4(C)CC[C@H](O)C(C)(C)[C@@H]4CC[C@@]3(C)[C@]1(C)C[C@@H]2O
8. Cc1cc(O)ccc1C1=NN(c2ccc(S(C)(=O)=O)cc2)C(=O)CC1

Data returned:
["> 100 µM", "> 62.8 µM", "> 100 µM", "79.9 µM", "34.7 µM", "> 100 µM", "55 µM", "> 100 µM"]

Batch request: TGI for each of the following molecules.
1. COc1ccc2cc(-c3cc4c(oc3=O)-c3ccccc3OC4O)c(=O)oc2c1 (stereo not given)
2. CCN1C(=O)C(C)S/C1=N\NC(=O)CSc1nc2ccccc2c(=O)n1CC (stereo not given)
3. Cc1cc(S(=O)(=O)Nc2cc(N)[nH]n2)c(SCc2nc(N)nc(N(C)C)n2)cc1Cl

Data returned:
35.3 µM
> 100 µM
> 10 µM

Batch request: TGI for each of the following molecules.
1. CC(=O)NC(CCC(=O)C=[N+]=N)C(=O)O (stereo not given)
2. Nc1nc2c(s1)CCc1c-2c(Br)n(Cc2ccccc2)c1Br
3. C=CC(C1=CC(=O)C(OC)=CC1=O)c1ccccc1 (stereo not given)
4. CC(=O)NC(c1nc2cc(C)c(C)cc2[nH]1)c1nc2cc(C)c(C)cc2[nH]1
5. O=C(N=Nc1cccc(Cl)c1)NNc1cccc(Cl)c1

Data returned:
1: > 100 µM; 2: 64.2 µM; 3: 58.7 µM; 4: 47.5 µM; 5: 50.1 µM
